Origin of the recorded values: patent US20240383904A1

- Experimental System: MAGL (Homo sapiens, UniProt Q99685)
- Sequence (Q99685 whole entry, species assumed): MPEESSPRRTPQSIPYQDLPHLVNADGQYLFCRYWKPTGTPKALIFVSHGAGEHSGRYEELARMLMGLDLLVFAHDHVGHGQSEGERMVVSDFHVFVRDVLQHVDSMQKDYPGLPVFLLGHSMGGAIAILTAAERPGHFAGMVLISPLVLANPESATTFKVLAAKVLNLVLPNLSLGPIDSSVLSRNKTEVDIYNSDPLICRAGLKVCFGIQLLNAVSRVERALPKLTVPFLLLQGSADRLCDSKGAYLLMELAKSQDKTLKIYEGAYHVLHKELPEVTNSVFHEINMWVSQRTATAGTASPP
- Experiment Notes: 2-AG assay: MAGL inhibitory activity by hydrolysis of 2-arachidonoylglycerol to arachidonic acid, followed by mass spectrometry
- Format: biochemical
- Applied Conditions: 15 min preincubation, 30 min reaction at RT, 8 μM 2-arachidonoylglycerol
pIC50: −log10 of the molar value.
Measure: pIC50

Examples with answers:
[[record]]
molecule = "O=C1NC2(CO1)CN(C(=O)N1CC3(CCC(Oc4ncc(C(F)(F)F)cn4)CC3)C1)C2 [Example 123]"
experimental_system = "MAGL (Homo sapiens, UniProt Q99685)"
recorded_result = 8.35

[[record]]
molecule = "N#Cc1cc(C(F)(F)F)ncc1O[C@H]1CCC2(C1)CN(C(=O)N1CC3(COCC(=O)N3)C1)C2 [Example 214]"
experimental_system = "MAGL (Homo sapiens, UniProt Q99685)"
recorded_result = 6.41

[[record]]
molecule = "Cc1cc(C(F)F)n(CC2CC3(C2)CN(C(=O)N2CC4(CCC(=O)N4)C2)C3)n1 [Example 346]"
experimental_system = "MAGL (Homo sapiens, UniProt Q99685)"
recorded_result = 7.54


A = N#Cc1cc(C(F)(F)F)ncc1CC1CC2(C1)CN(C(=O)N1CC3(COC(=O)N3)C1)C2 [Example 211]
B = CS(=O)(=O)c1cc(F)ccc1OC1CCC2(CC1)CN(C(=O)N1CC3(COC(=O)N3)C1)C2 [Example 99]
C = O=C1COCC2(CN(C(=O)N3CC4(CC(c5ccc(C(F)(F)F)cc5F)C4)C3)C2)N1 [Example 228]
D = O=C1CCC2(CN(C(=O)N3CC4(CC(Cc5ccc(S(=O)(=O)C(F)(F)F)cn5)C4)C3)C2)N1 [Example 262]
E = N#Cc1cnn(CC2CC3(C2)CN(C(=O)N2CC4(CCC(=O)N4)C2)C3)c1 [Example 247]
Order the records, beginning with the lowest pIC50 and ending with the highest. State the ranking by listing the labels in the requested order.
E, C, B, D, A

----------
- Experimental System: MAGL (Homo sapiens, UniProt Q99685)
- Experiment Notes: 2-AG assay: MAGL inhibitory activity by hydrolysis of 2-arachidonoylglycerol to arachidonic acid, followed by mass spectrometry
- Type: biochemical
- Applied Conditions: 15 min preincubation, 30 min reaction at RT, 8 μM 2-arachidonoylglycerol
Measure: IC50 (nM)

[[record]]
mol_smiles = "N#Cc1cc(C(F)(F)F)ncc1C[C@@H]1CCC2(C1)CN(C(=O)N1CC3(COC(=O)N3)C1)C2"
measure = "IC50"
unit_info = "nM"
recorded_result = 0.55

[[record]]
mol_smiles = "O=C1NC2(CO1)CN(C(=O)N1CC3(CC[C@H](Cc4cnc(C(F)(F)F)cn4)C3)C1)C2"
measure = "IC50"
unit_info = "nM"
recorded_result = 0.31


A = O=C1CCC2(CN(C(=O)N3CC4(CCC(Cc5ccc(OC(F)F)nc5)CC4)C3)C2)N1
B = O=C1NC2(CO1)CN(C(=O)N1CC3(CCC(Nc4cnc(C(F)(F)F)cn4)CC3)C1)C2
Given the listed items, does A or B have the lesser reported IC50? // respond with label for picked entry
B

----------
- Experimental System: MAGL (Homo sapiens)
- Experiment Notes: 2-AG assay: MAGL inhibitory activity by hydrolysis of 2-arachidonoylglycerol to arachidonic acid, followed by mass spectrometry
- Assay type: biochemical
- Applied Conditions: 15 min preincubation, 30 min reaction at RT, 8 μM 2-arachidonoylglycerol
pIC50: −log10 of the molar value.
Measure: pIC50

Examples with answers:
[[record]]
compound = "O=C1CCC2(CN(C(=O)N3CC4(CC(Cc5ccc(S(=O)(=O)C(F)(F)F)cc5)C4)C3)C2)N1"
experimental_system = "MAGL (Homo sapiens)"
recorded_result = 10.15

[[record]]
compound = "O=C1CCC2(CN(C(=O)N3CC4(CC(Cc5cc(C(F)(F)F)ncn5)C4)C3)C2)N1"
experimental_system = "MAGL (Homo sapiens)"
recorded_result = 7.26


P = CC(C)(C)c1coc(CN2CC3(C2)CN(C(=O)N2CC4(CCC(=O)N4)C2)C3)n1
Q = N=S(=O)(c1cccc(CC2CC3(C2)CN(C(=O)N2CC4(CCC(=O)N4)C2)C3)c1)C(F)(F)F (stereo not drawn)
R = Cn1cc(CC2CC3(C2)CN(C(=O)N2CC4(CCC(=O)N4)C2)C3)c(C(F)(F)F)n1
Order field: pIC50 | Direction: descending (largest first) State the ranking by listing the labels in the requested order.
Q, R, P

1 = O=C1COCC2(CN(C(=O)N3CC4(CC(Cc5cccc(S(=O)(=O)C(F)(F)F)c5)C4)C3)C2)N1
2 = O=C1COCC2(CN(C(=O)N3CC4(CCN(Cc5ccc(S(=O)(=O)C(F)(F)F)cc5)C4)C3)C2)N1
3 = O=C1CCC2(CN(C(=O)N3CC4(CCN(Cc5cccc(S(=O)(=O)C(F)(F)F)c5)CC4)C3)C2)N1
4 = O=C1CCC2(CN(C(=O)N3CC4(CC[C@@H](Cc5ccc(S(=O)(=O)C(F)(F)F)cc5)C4)C3)C2)N1
Order the records, beginning with the lowest pIC50 and ending with the highest. State the ranking by listing the labels in the requested order.
1, 2, 3, 4
(1: 6.31, 2: 6.58, 3: 8.33, 4: 8.64)
